- Test details: soluble on expression in E. coli; label from the status in PepcDB or PDB records
Parameter: soluble on expression in E. coli

{"Biosequence": "MTEIRVHQGDLPNLDNYRIDAVAVDTETLGLQPHRDRLCVVQLSSGDGTADVIQIAKGQKSAPNLVRLLSDRDITKIFHFGRFDLAILAHTFGVMPDVVFCTKIASKLTRTYTDRHGLKEICGELLNVNISKQQQSSDWAAETLSRAQIEYAASDVLYLHRLKDIFEERLKREERESVAKACFQFLPMRANLDLLGWSEIDIFAHS", "Value reported": "not soluble"}
{"Biosequence": "MGSDKIHHHHHHMVVTEYELKPQNFPRFPLDWSEIFGRKAKIVVEIGFGNGEFLAELARRHPEKDFVGFEVSITSFVKAQKKFKRYNLKNVRLVKVDARFGLRELFPDNSVEKVYINFPCPWPKKRHESRRITSYDFLQTLSAVLEMDGTVEFATDEEWYAREVLDTFESSEYFVVDVFEENFKRDVETRYERKWKSQGKKTFLIVARKVKNGTVKRLMEGENTMAHSVFEGNVTWEKLKELEGKVFKDKNKIFVVKKVYRDGDYLLKVISTDEGGFQQVYYLNLSGRDGKWVLKLDEGSDPYRTPALKWSLRRIPEELTAQGSP", "Value reported": "not soluble"}
